Target: T1, Formyl peptide receptor like 1 (FPRL1) (human, UniProt P25090 1-351)
T1 sequence (looked up): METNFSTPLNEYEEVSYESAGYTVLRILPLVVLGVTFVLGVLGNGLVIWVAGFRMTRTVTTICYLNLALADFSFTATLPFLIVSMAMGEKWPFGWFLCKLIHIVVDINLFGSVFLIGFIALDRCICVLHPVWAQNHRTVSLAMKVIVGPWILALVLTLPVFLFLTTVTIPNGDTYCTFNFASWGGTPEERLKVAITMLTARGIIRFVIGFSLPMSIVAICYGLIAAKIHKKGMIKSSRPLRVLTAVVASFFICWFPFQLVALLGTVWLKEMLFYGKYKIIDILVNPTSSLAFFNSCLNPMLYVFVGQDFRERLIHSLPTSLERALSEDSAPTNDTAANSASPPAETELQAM
Assay: cell-based or functional assay
quantity: Ca^2+ (FPRL1) IC50 (nM)
Quick note: give the figure in nM, leave out the unit.

Solved cases below.
WWWWWM; 130
LRWWWW; 1100
WWWWRW; 2700

Task item: Ca^2+ (FPRL1) IC50 lookup needed for WWWRWW , thanks.
Reply: 470
